Provenance of the data: ChEMBL document CHEMBL4613324

# Experimental System: Cytochrome P450 3A5 (Homo sapiens, UniProt P20815)
# Sequence (P20815 whole entry): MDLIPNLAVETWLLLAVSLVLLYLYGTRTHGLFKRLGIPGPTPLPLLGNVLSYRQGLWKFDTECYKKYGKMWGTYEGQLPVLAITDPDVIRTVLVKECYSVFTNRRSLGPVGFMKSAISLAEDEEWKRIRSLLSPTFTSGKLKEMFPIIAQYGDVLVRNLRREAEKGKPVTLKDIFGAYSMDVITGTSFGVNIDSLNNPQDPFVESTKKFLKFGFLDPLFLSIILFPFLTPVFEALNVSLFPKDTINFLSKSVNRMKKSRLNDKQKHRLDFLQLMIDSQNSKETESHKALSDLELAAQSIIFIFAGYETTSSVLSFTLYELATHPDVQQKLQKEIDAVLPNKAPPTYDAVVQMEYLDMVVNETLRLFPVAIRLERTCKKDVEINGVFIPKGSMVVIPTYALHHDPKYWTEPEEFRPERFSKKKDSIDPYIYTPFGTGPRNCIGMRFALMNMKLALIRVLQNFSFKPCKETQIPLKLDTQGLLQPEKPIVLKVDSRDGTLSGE
# Protocol Text: Inhibition of recombinant human CYP3A5 using midazolam as substrate
# Assay type: ADME
Measurement Name: IC50 (µM)
Write the answer as a number in µM, unit excluded.

Q: So what does the record say about IC50 for CS(=O)(=O)n1cc2c(n1)CN([C@@H]1C[C@H](N)[C@@H](c3cc(F)ccc3F)O[C@@H]1C(F)(F)F)C2 [COFROGLIPTIN] ?
A: 45.8

----------
# Experimental System: Cytochrome P450 2C19 (Homo sapiens, UniProt P33261)
# Sequence (P33261 whole entry): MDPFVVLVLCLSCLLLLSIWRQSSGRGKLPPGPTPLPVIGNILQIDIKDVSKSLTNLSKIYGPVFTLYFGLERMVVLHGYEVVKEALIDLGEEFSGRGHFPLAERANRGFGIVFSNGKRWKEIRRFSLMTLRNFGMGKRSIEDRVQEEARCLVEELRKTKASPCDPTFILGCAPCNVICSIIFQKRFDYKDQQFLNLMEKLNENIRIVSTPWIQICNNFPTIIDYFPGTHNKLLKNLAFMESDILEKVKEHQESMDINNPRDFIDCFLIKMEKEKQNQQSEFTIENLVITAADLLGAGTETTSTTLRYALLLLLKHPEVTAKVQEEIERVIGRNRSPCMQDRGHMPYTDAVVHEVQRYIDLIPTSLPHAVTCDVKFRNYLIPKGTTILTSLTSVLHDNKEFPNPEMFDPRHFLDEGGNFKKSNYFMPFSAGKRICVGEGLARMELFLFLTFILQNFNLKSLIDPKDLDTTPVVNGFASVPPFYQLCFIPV
# Protocol Text: Inhibition of recombinant human CYP2C19
# Type: ADME
Measurement Name: IC50

Q: So what does the record say about IC50 for CS(=O)(=O)n1cc2c(n1)CN([C@@H]1C[C@H](N)[C@@H](c3cc(F)ccc3F)O[C@@H]1C(F)(F)F)C2 [COFROGLIPTIN] ?
A: > 100 µM
